procedure.details: yeast display, Sf9 membrane polyspecificity reagent, FACS + sequencing; frameworks hold sequencing errors
experimental.endpoint: polyreactivity (PSR sort gate)

QVQLVQSGGGLVQAGGSLRLSCAASGRIFNYNAMGWYRQAPGKERELVAAINRSGVSTHYADSVKGRFTISRDNAKNTVYLQMNSLKPEDTAVYYCARTVYGARSYDYWGQGTQVTVSS: low polyreactivity
QVQLVESGGGLVQAGGSLRLSCAASGRTFAINAMGWHRQAPGKERELVADITTDGSTYYADSVKGRFTISRDNAKNTVYLQMNSLKPEDTAVYYCATDSLDYFIRFKQFGYWGQGTQVTVSS: low polyreactivity

----------
procedure.details: yeast display, Sf9 membrane polyspecificity reagent, FACS + sequencing; frameworks hold sequencing errors
experimental.endpoint: polyreactivity (PSR sort gate)

# annotated cases, reported polyreactivity (PSR sort gate) shown
QVQLVESGGGLVQAGGSLRLSCAASGFIFWYYAMGWSRQAPGKERELVAAISKSGGRTYYADSVKGRFTISRDNAKNTVYLQMNSLKPEDTAVYYCARRAYLSYGYWSDYWGQGTQVTVSS: high polyreactivity
QVQLVESGGGLVQAGGSLRLSCAASGYAKGWYRQAPGKESELDAAITSNGGRTYYADSVKGRFTISRDNAKNTVYIQMNSLKPEDTAVYYCATRSGPHYKTRWTYDLGYWGQGSQVTVSS: low polyreactivity
QVQLVETGGGLVQAGGSLRLSCAASGSIFGFYAMGWYRQAPGKERELVAAIDSGDSTNYADSVKGRFTISRDNAKNTVYLQMNSLKPEDTAVYYCYAEAWWYFWFDYWGQGTQVTVSS: low polyreactivity
QVQLVESGGGLVQAGGSLRLSCAASGFTFAYYAMGWYRQAPGKERELVATITSGGRTYYADSVKGRFTISSDNAKNTVYLQMNSLKPEDTAVYYCAATGRSGVLSSYYYWGQGTQVTVSS: high polyreactivity

Now examine the next entry.
Ask | Looking for the measured polyreactivity (PSR sort gate) of QVQLVESGGGLVQAGGSLRLSCAASGYTFYSYAMGWYRQEPGKERELVAAIRTGGGTIYADSVKGRFTISRDNAKNTVYLQMNSLKPEDTAVYYCAAESGYPVYTYVSSGDYWGQGTQVTVSS , can you help?
Reply | low polyreactivity

----------
procedure.details: yeast display, Sf9 membrane polyspecificity reagent, FACS + sequencing; frameworks hold sequencing errors
experimental.endpoint: polyreactivity (PSR sort gate)

QVQLVESGGGLVQAGGSLRLSCAASGLTFTKNVMGWYRQAPGKERELVAVISRSGGSTYYADSVKGRFTISRDNAKNTVYLQMNSLKPEDTAVYYCNVKGPGPSRGNYWGQGTQVTVSS: low polyreactivity
QVQLVESGGGLVQAGGSLRLSCAASGRIFGNNAMGWYRQAPGKERELVAAIRSRGTRTYYADSVKGRFTISRDNAKNTVYLQMNSLKPEDTAVYYCATTSLTGRYDRYDYWGQGTQVTVSS: high polyreactivity
QVQLVESGVGIVQAGCSLRLSCAASGSIFRYYAMGLYRQAPGKERELVAGITASTGRTYYADSVKGRFTISRDNAKNTVYLQMNSLKPEDTAVYYCAARSRYYEYDYWGQGTQVTVSS: low polyreactivity
QVQLVESGGGLVQAGGSLRLSCAASGSTFYYYAMGWYRQAPGKERELVARITWIGGSTYYADSVKGRFTISRDNAKNTVYLQMNSLKPEDTAVYYCAAGWYRRIYGGWGYDYWGQGTQVTVSS: low polyreactivity
QVQLVESGGGLVQAGGSLRLSCAASGSIFTYNAMGWYRQAPGKERELVAAISRGGGRTYYADSVKGRFTISRDNAKNTVYLQMNSLKPEDTAVYYCAADIYVRQRYPYYYWGQGTQVTVSS: high polyreactivity
QVQLVESGGGLVQAGGSLRLSSAASGLTFTYYVMGWYRQAPGKERELVAAITVSGGSTYYADSVKGRFTISRDNAKNTVYLQMNSLKPEDTAVYYCAADAYSGYSDYYWGQGTQVTVSS: low polyreactivity

Provide the reported polyreactivity (PSR sort gate) of each entry below, same order.
1. QVQLVESGGGLVQAGGSLRLSCAASGSTLSSYAMGWYRPAPGTERELGAVISGGGRTYYADSVKGRFTISRDNAKNTVYLQMNSLKPEDTAVYYCAAVTFSLGYRYYYWGQGTQVTVSS
2. QVQLVESGGGLVQAGGSLRLSCAASGSTYYWYMGWYRQAPGKERELVAAITSGGRTYYADSVKGRFTISRDNAKNTVYLQMNSLKPEDTAVYYCARPYSRAYDYWGQGTQVTVSS
3. QVQLVESGGGLVQAGGSRRLSCAASGLIFVRYAMGWYRQAPGKERELVATISSRGASTYYADSVKGRFTISRDNAKNTVYFQMNSLKPEDTAVYYCNAGRLRRSYKPYDYWGQGTQVTVSS

Reply |
1. high polyreactivity
2. high polyreactivity
3. high polyreactivity

Provide the reported polyreactivity (PSR sort gate) of each entry below, same order.
1. QVQHVESGGGLVQAGGSLRLSCAASGFTFARYAMGWYRHAPGKERELVASISSSGDRTNYADSVKGRFTISRDNAKITVYLQMYSLKPEDTAVYYCNADFGYGWYLRYDYWGQGTQVTVSS
2. QVQLVESGGGLVQAGGSLRLSCAASGFIFSYNAMGWYRQAPGKERELVAAISARGGSTYYADSVKGRFTISRDNAKNTVYLQMNSLKPEDTAVYYCNRKQAGHAQGYDYWGQGTQVTVSS

Reply |
1. high polyreactivity
2. high polyreactivity

----------
procedure.details: yeast display, Sf9 membrane polyspecificity reagent, FACS + sequencing; frameworks hold sequencing errors
experimental.endpoint: polyreactivity (PSR sort gate)

# annotated cases, reported polyreactivity (PSR sort gate) shown
QVQLVESGGGLVQAGGSLRLSCAASGSIFFANAMGWYRPAPGKERELVATITSGGSTTYADSLKGRFTISRDNAKNTVYLQMNSLKPEDTAVYYCNADYDYGWVFYSNYDYWGQGTQVTVSS: low polyreactivity
QVQLVESGGGLVQAGGSLRLSCAASGLTFSLNAMGWYRPAPGKERELVAAIRGSGGSTYYADSVKGRFTISRDNAKNTVYLQMNSLKPEDTAVYYCAASPKRVLRESGVYWGQGTQVTVSS: high polyreactivity
QVQLVESGGGLVQAGGSLRLSCAASGRIFHSYTMGWYRQAPGKERELVAAINWSGTRTYYADSVKGRFTISRDNAKNTVYLQMNSLKPEDTAVYYCNRVGVTRSYRYDYWGQGTQVTVSS: high polyreactivity
QVQLVESGGGLVQAGGSLRLSCAASGFTFAGYAMGWYRQAPGKERELVAAISYSGGRTYYADSVKGRFTISRDNEKNTVYLQMNSLKPEDTAVYYCNADPAYYRGYYRQGYDYWGQGTQVTVSS: high polyreactivity
QVQLVESGGGLVQAGGSLRLSCAASGRTFGYYAMGWYRQAPGKEREFVAAISWSGGSTYYADSVKGRFTISRDNAKNTVYLQMNSLKPEDTAVYYCATDTTYYAGSWYGYWGQGTQVTVSS: low polyreactivity
QVQLVESGGGLVQAGGSLRLSCAASGRTFFNYGMGWYRQAPGKEREFVARISFSGGSTYYADSVKGRFTISRDNAKNTVYLQMNSVKPEDTAVYYCNARVFPFAYRYGYWGQGTQVTVSS: high polyreactivity

Provide the reported polyreactivity (PSR sort gate) of each entry below, same order.
1. QVQLVESGGGLVQAGGSLRLSCAASGIIFGYYARGWYRQAPGKARELVAAISRGGNTNYADSVKGRFTISRDNAKNTVYLQMNSLKPEDTAVYYCAADFWSRIKYFYAVDVDYWGQGTQVTVSS
2. QVQLVESGGGLVQAGGSLRLSCAASGFIFASYTMGRTRQAPGKERELVAAISRAGSTYYADSVKGRFTISRDNAKNTVYLQMNSLKPEDTAVYYCNAVSWRTSRYDYWGQGTQVTVSS
3. QVQLVESGGGLVQAGGSLRLSWAASGLTFETYVMGWYRQAPGKERELVAAISSSGRTYYADSVKGRFTISRDNAKNTVYLQMNSLKPEDTAVYYCAARGREFGYWGQGTQVTVSS
4. QVQLVESGGGLVQAGGSLRLSCAASGRIFDNYVMGWYRQAPGKERELVAAISSGGGTYYADSVKGRFTISRDNAKNTVYLQMNSLKPEDTAVYYCAKRRVYDRSFGRYDYWGQGTQVTVSS
5. QVQLVESGGGLVQAGGSLRLSCAASGRILQFNAMGWYRQATGKERELVAAISTSGGRTYYADSVKGRFTISRDNAKNTVYLQMISLKPEDTAVYDCNAVAYKLMGYWGQGTQVTVSS
6. QVQLVESGGGLVQAGGSLRLSCAASGITFYGYAMGWYRQAPGKERELVAAITRGGSTNYADSVKGRFTISRDNAKITPYLQMNSLKPEDTAVYYCNTYVGRRPGYGYWGQGTQVTVSS
7. QVQLVESGGSLVQAGGSLLLSSAASLRTFGVNDIGWYRKAPGKERNFVAAISYSDTSTYYADSVKVSFTISRDNAKNTVYLQMNSLKPEDTAVYYCAVETYLQYDNGYGHDYWGQGTQVTVSS
8. QVQHVESGGGLVQAGGSRRLSCAASGSIFFYAMGWYRQAPAKERVLVAAITSAGSTNFADSVKGRFTISRDNAKNTVYLQMYSLKPEDTAVYYCAAGYVGYSWSYPYGWVEYDYWGQGTQVTVSS

Reply |
1: low polyreactivity; 2: high polyreactivity; 3: high polyreactivity; 4: low polyreactivity; 5: high polyreactivity; 6: high polyreactivity; 7: low polyreactivity; 8: high polyreactivity
